- TARGET: NAD-dependent protein deacetylase sirtuin-3, mitochondrial (Homo sapiens, UniProt Q9NTG7)
- Sequence (Q9NTG7 whole entry): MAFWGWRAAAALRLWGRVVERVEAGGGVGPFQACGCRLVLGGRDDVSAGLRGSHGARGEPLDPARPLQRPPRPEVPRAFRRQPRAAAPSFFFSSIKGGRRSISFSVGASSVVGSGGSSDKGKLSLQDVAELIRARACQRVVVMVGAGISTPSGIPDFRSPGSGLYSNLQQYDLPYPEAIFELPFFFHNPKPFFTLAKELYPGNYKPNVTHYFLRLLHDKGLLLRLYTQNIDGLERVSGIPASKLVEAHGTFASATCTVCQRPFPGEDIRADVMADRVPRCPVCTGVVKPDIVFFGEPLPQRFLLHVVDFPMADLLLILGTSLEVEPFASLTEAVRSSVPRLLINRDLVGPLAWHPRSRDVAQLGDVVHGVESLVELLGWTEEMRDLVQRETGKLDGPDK
- RUN DESCRIPTION: Inhibition of recombinant human His6-tagged SIRT3 using H2N-HK-[Nepsilon-acetyl-lysine]-LM-COOH as substrate incubated for 10 mins in presence of beta-NAD+ by HPLC based assay
READOUT KIND: pIC50
pIC50 is a log-scale quantity: -log10 of the concentration expressed in molar.

Lookup result for "CC(=S)NCCCC[C@@H]1NC(=O)CNCCC(=O)NCCCC[C@@H](C(N)=O)NC1=O" ; measured pIC50: 4.24

Lab note: "CC(=S)NCCCC[C@@H]1NC(=O)[C@H](Cc2ccc3ccccc3c2)NC(=O)CCCCCCC(=O)NCCC[C@@H](C(N)=O)NC1=O" gave pIC50 of 5.49

Recorded result, "CC(=S)NCCCC[C@@H]1NC(=O)[C@H](Cc2csc3ccccc23)NC(=O)CCCCCCC(=O)NCCC[C@@H](C(N)=O)NC1=O" , pIC50: 5.50

Others:
// pIC50 lookup, compound = "CC(=S)NCCCC[C@@H]1NC(=O)[C@H](Cc2ccc3ccccc3c2)NC(=O)CCCCCCC(=O)NC[C@@H](C(N)=O)NC1=O" , result: 5.46

Please fill in: pIC50 reported for "CC(=S)NCCCC[C@@H]1NC(=O)[C@H](Cc2csc3ccccc23)NC(=O)CCCCCCC(=O)NC[C@@H](C(N)=O)NC1=O" = 5.60

Data point: "CCCC[C@@H]1NC(=O)CCCCCCC(=O)NCCCC[C@@H](C(N)=O)NC(=O)[C@H](CCCCNC(C)=S)NC1=O" ; pIC50 = 6.33

Lab note: "CN(C)CCCCC(=O)Nc1ccc(NC(=S)NC(=O)c2ccc(C(C)(C)C)cc2)cc1" gave pIC50 of 4.59

----------
- TARGET: NAD-dependent protein deacylase sirtuin-6 (Homo sapiens, UniProt Q8N6T7)
- Sequence (Q8N6T7 whole entry): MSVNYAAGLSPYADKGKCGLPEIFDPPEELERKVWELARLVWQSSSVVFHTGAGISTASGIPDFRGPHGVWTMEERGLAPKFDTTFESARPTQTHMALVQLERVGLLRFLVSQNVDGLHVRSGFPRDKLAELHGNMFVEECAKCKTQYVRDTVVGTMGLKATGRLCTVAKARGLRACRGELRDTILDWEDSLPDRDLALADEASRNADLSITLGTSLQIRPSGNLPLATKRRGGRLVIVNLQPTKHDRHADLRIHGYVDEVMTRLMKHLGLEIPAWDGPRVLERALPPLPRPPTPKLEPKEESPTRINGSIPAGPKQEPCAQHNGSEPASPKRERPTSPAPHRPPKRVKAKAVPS
- RUN DESCRIPTION: Inhibition of recombinant human His6-tagged SIRT6 using H2N-EALPK-[Nepsilon-myristoyl-lysine]-TGGPQ-CONH2 as substrate incubated for 12 mins in presence of beta-NAD+ by HPLC based assay
pIC50: −log10 of the molar value.
Reported pIC50 is given for each of the following molecules.

Consider the following illustrative entries.
pIC50 value, target or system NAD-dependent protein deacylase sirtuin-6 (Homo sapiens, UniProt Q8N6T7), for "CC(=S)NCCCC[C@@H]1NC(=O)[C@H](Cc2csc3ccccc23)NC(=O)CCCCCCC(=O)NCCC[C@@H](C(N)=O)NC1=O" : < 2.70

Let me check: "CC(=S)NCCCC[C@@H]1NC(=O)[C@H](Cc2csc3ccccc23)NC(=O)CCCCCCC(=O)NCCCC[C@@H](C(N)=O)NC1=O" , system NAD-dependent protein deacylase sirtuin-6 (Homo sapiens, UniProt Q8N6T7), measured pIC50 is < 3.00

Entry "CC(=S)NCCCC[C@@H]1NC(=O)[C@H](Cc2csc3ccccc23)NC(=O)CCCCCCC(=O)NCC[C@@H](C(N)=O)NC1=O" : pIC50 on NAD-dependent protein deacylase sirtuin-6 (Homo sapiens, UniProt Q8N6T7) = < 3.00

Further cases:
Record "CC(=S)NCCCC[C@@H]1NC(=O)[C@H](Cc2ccc3ccccc3c2)NC(=O)CCCCCCC(=O)NCC[C@@H](C(N)=O)NC1=O" has NAD-dependent protein deacylase sirtuin-6 (Homo sapiens, UniProt Q8N6T7) pIC50 equal to < 2.40
